- experiment-notes: Plasma clearance was estimated from the AUC after 5 mg/kg intravenous dosing in rats
- Format: ADME, organism-based
- Parameters: dose 5 mg/kg, route intravenous
- measurement-conditions: rat
readout: clearance (mL/min/kg)

- compound: "CC(CSC(CCc1ccccc1C(C)C)c1cccc(OCc2ccc3ccc(Cl)cc3n2)c1)C(=O)[O-].[Na+] (centres undefined)"
  obs-value: 2.2
- compound: "CCC(CSC(CCc1ccccc1C(=O)O)c1cccc(OCc2ccc3ccc(Cl)cc3n2)c1)C(=O)[O-].[Na+] (centres undefined)"
  obs-value: 8.8
- compound: "CCC(CSC(CCc1ccccc1-c1nn[nH]n1)c1cccc(OCc2ccc3ccc(Cl)cc3n2)c1)C(=O)[O-].[Na+] (centres undefined)"
  obs-value: 61
- compound: "CCOC(=O)Nc1ccccc1CCC(SCC(CC)C(=O)[O-])c1cccc(CCc2ccc3ccc(Cl)cc3n2)c1.[Na+] (centres undefined)"
  obs-value: 8.8

====

The entries below are paired with their reported pIC50.
- system: Cysteinyl leukotriene receptor 1 (Cavia porcellus, UniProt Q2NNR5)
- Sequence (Q2NNR5 whole entry): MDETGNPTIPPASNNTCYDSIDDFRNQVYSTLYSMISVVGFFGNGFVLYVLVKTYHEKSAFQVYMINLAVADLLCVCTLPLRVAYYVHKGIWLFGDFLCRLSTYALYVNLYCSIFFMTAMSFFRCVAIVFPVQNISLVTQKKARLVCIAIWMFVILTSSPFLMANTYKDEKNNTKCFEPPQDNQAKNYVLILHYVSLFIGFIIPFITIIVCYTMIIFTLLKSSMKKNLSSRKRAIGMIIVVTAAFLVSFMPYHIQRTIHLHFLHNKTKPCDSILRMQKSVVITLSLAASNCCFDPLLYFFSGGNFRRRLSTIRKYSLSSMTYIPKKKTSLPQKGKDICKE
- experiment-notes: Inhibitory concentration against [3H]Leukotriene D4 binding to guinea-pig lung membranes was determined
- Format: tissue-based, Membrane
pIC50: −log10 of the molar value.
readout: pIC50

- compound: "CCC[C@H](CS[C@@H](CCc1ccccc1C(C)(C)O)c1cccc(/C=C/c2ccc3ccc(Cl)cc3n2)c1)C(=O)O"
  readout: "pIC50"
  obs-value: 9.05
- compound: "CN(C)C(=O)c1ccccc1CCC(SCCC(=O)[O-])c1cccc(OCc2ccc3ccc(Cl)cc3n2)c1.[Na+] (stereo unspecified)"
  readout: "pIC50"
  obs-value: 9.02
- compound: "CN(C)C(=O)c1ccccc1CCC(SCCC(=O)O)c1cccc(OCc2ccc3ccc(Cl)cc3n2)c1 (stereo unspecified)"
  readout: "pIC50"
  obs-value: 9.02
- compound: "CC(CCC(SCCC(=O)O)c1cccc(/C=C/c2ccc3ccc(Cl)cc3n2)c1)CC(=O)N(C)C (stereo unspecified)"
  readout: "pIC50"
  obs-value: 8.89
- compound: "O=C([O-])CCSC(CCc1ccccc1C(=O)N1CCCCC1)c1cccc(OCc2ccc3ccc(Cl)cc3n2)c1.[Na+] (stereo unspecified)"
  readout: "pIC50"
  obs-value: 9.22
- compound: "CCC(CSC(CCc1ccccc1C#N)c1cccc(CCc2ccc3ccc(Cl)cc3n2)c1)C(=O)[O-].[Na+] (stereo unspecified)"
  readout: "pIC50"
  obs-value: 9.00
